A collection of molecules and their measured SSMD.CTG
- Tested on: ISC-enriched organoids
- measurement-notes: Primary screen, 384-well 2.5-D organoid differentiation (ENR+CD, 6 days, Target Selective Inhibitor Library, vs whole-plate median): ATP (CellTiter-Glo 3D, CTG)
- condition-notes: strictly standardized mean difference; primary screen; 1st of the 4 dose lines of the treatment (dose not given)
measured-metric: SSMD.CTG

INSERT INTO measurements (smiles_structure, target_of_assay, result_value) VALUES
  ('Cc1cc(Nc2cc(CN3CCOCC3)c3nc(C)c(Cc4ccc(Cl)cc4F)n3n2)n[nH]1', 'ISC-enriched organoids', 0.378),
  ('CCn1c(=O)c2c(nc(/C=C/c3ccc(OC)c(OC)c3)n2C)n(CC)c1=O', 'ISC-enriched organoids', '−0.113'),
  ('CCCC(=O)Nc1cccc(NC(=O)c2ccccc2Br)c1', 'ISC-enriched organoids', 0.278),
  ('Cc1cc(Nc2ncc(Cl)c(Nc3ccccc3S(=O)(=O)C(C)C)n2)c(OC(C)C)cc1C1CCNCC1', 'ISC-enriched organoids', 0.320),
  ('Cc1cnc(NC(=O)Nc2cc(Br)c(C)cc2OC[C@@H]2CNCCO2)cn1', 'ISC-enriched organoids', '−0.013');
